target: HaloTag Protein (HTP) on +HTP neurons (Rhodococcus rhodochrous, UniProt P0A3G2, A155T/A167V/A172T/A224E/C128F/C176G/D78G/E160K/E257K/H272N/K175M/K195N/L47V/L88M/N227D/S58T/T264A/Y273L/Y87F); construct: SSnlg signal peptide (residues 1-49 of mouse neuroligin-1) (N); ERXL (Kir2.1 trafficking and ER export signals); expressed in transfected cells; host or cells: primary rat hippocampal neurons, electroporated with plasmid; assay: biotin-HTL capture dose-response on +HTP cultured neurons; assay type: cell-based, rat; settings: EC 50 (nM), concentration for half-maximal capture on +HTP neurons following 15 minutes of incubation
Sequence (P0A3G2 other isoform, or with tags, fused parts or gaps with the stated changes): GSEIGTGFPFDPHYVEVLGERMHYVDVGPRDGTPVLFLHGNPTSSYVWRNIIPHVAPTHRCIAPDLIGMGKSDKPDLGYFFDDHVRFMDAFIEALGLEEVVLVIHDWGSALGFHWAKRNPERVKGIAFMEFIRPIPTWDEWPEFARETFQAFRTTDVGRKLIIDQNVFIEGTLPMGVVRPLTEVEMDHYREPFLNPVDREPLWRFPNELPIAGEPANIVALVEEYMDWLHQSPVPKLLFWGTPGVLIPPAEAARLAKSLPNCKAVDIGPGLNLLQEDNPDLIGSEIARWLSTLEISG
# if measured EC50 < 60 nM: Condition met  # else: Condition not met

Please review the entries below; each comes with its answer.
Req: Here's an entry: "COc1cc(CCCCCl)ccc1CCOCCNC(=O)c1ccc(CNC(=O)CCOCCOCCOCCOCCOCCOCCOCCOCCOCCOCCOCCOCCNC(=O)CCCC[C@@H]2SC[C@@H]3NC(=O)N[C@@H]32)cc1" . Is its EC50 below 60 nM?
Resp: Condition met

Req: Here's an entry: "O=C(CCCC[C@@H]1SC[C@@H]2NC(=O)N[C@@H]21)NCCOCCOCCOCCOCCOCCOCCOCCOCCOCCOCCOCCOCCC(=O)NCc1ccc(C(=O)NCCCCOc2ccc(CCCCCl)cc2Cl)cc1" . Is its EC50 below 60 nM?
Resp: Condition not met

Req: Here's an entry: "COc1cc(CCCCBr)ccc1OCCCCNC(=O)c1ccc(CNC(=O)CCOCCOCCOCCOCCOCCOCCOCCOCCOCCOCCOCCOCCNC(=O)CCCC[C@@H]2SC[C@@H]3NC(=O)N[C@@H]32)cc1" . Is its EC50 below 60 nM?
Resp: Condition met

Req: Here's an entry: COc1cc(CCCCl)ccc1C(=O)NCCCNC(=O)c1ccc(CNC(=O)CCOCCOCCOCCOCCOCCOCCOCCOCCOCCOCCOCCOCCNC(=O)CCCC[C@@H]2SC[C@@H]3NC(=O)N[C@@H]32)cc1 [drawing 135] . Is its EC50 below 60 nM?
Resp: Condition not met

Req: Here's an entry: "O=C(CCCC[C@@H]1SC[C@@H]2NC(=O)N[C@@H]21)NCCOCCOCCOCCOCCOCCOCCOCCOCCOCCOCCOCCOCCC(=O)NCc1ccc(C(=O)NCCCCOc2ccc(CCCCCl)cc2OC(F)(F)F)cc1" . Is its EC50 below 60 nM?
Resp: Condition not met

Req: Here's an entry: "COc1cc(/C=C/CCCl)ccc1CCOCCNC(=O)c1ccc(CNC(=O)CCOCCOCCOCCOCCOCCOCCOCCOCCOCCOCCOCCOCCNC(=O)CCCC[C@@H]2SC[C@@H]3NC(=O)N[C@@H]32)cc1" . Is its EC50 below 60 nM?
Resp: Condition met

Req: Here's an entry: "COc1cc(CCCCl)ccc1OCCCCNC(=O)c1ccc(CNC(=O)CCOCCOCCOCCOCCOCCOCCOCCOCCOCCOCCOCCOCCNC(=O)CCCC[C@@H]2SC[C@@H]3NC(=O)N[C@@H]32)cc1" . Is its EC50 below 60 nM?
Resp: Condition met

Req: Here's an entry: "COc1cc(CCCCl)ccc1CCOCCNC(=O)c1ccc(CNC(=O)CCOCCOCCOCCOCCOCCOCCOCCOCCOCCOCCOCCOCCNC(=O)CCCC[C@@H]2SC[C@@H]3NC(=O)N[C@@H]32)cc1" . Is its EC50 below 60 nM?
Resp: Condition met

Others:
Req: Here's an entry: "COc1cc(CCCCl)ccc1CC(=O)NCCNC(=O)c1ccc(CNC(=O)CCOCCOCCOCCOCCOCCOCCOCCOCCOCCOCCOCCOCCNC(=O)CCCC[C@@H]2SC[C@@H]3NC(=O)N[C@@H]32)cc1" . Is its EC50 below 60 nM?
Resp: Condition not met

Req: Here's an entry: "COc1c(/C=C\CCCl)cccc1OCCCCNC(=O)c1ccc(CNC(=O)CCOCCOCCOCCOCCOCCOCCOCCOCCOCCOCCOCCOCCNC(=O)CCCC[C@@H]2SC[C@@H]3NC(=O)N[C@@H]32)cc1" . Is its EC50 below 60 nM?
Resp: Condition met

----------
Listing of entries alongside the reported EC50.
molecular target: HaloTag Protein (HTP) on +HTP neurons (Rhodococcus rhodochrous, UniProt P0A3G2, A155T/A167V/A172T/A224E/C128F/C176G/D78G/E160K/E257K/H272N/K175M/K195N/L47V/L88M/N227D/S58T/T264A/Y273L/Y87F); construct: SSnlg signal peptide (residues 1-49 of mouse neuroligin-1) (N); ERXL (Kir2.1 trafficking and ER export signals); expressed in transfected cells; host or cells: primary rat hippocampal neurons, electroporated with plasmid; experiment: biotin-HTL capture dose-response on +HTP cultured neurons; format: cell-based, rat; settings: EC 50 (nM), concentration for half-maximal capture on +HTP neurons following 15 minutes of incubation
Write the number in nM without appending the unit.

Req: For "O=C(CCCC[C@@H]1SC[C@@H]2NC(=O)N[C@@H]21)NCCOCCOCCOCCOCCOCCOCCOCCOCCOCCOCCOCCOCCC(=O)NCCOCCOCCCCCCCl" , what is its reported EC50?
Resp: 1000

Req: For "O=C(CCCC[C@@H]1SC[C@@H]2NC(=O)N[C@@H]21)NCCOCCOCCOCCOCCOCCOCCOCCOCCOCCOCCOCCOCCC(=O)NCc1ccc(C(=O)NCCCCOc2ccc(CCCCCl)cc2O)cc1" , what is its reported EC50?
Resp: 30

Req: For "CCOc1cc(CCCCCl)ccc1OCCCCNC(=O)c1ccc(CNC(=O)CCOCCOCCOCCOCCOCCOCCOCCOCCOCCOCCOCCOCCNC(=O)CCCC[C@@H]2SC[C@@H]3NC(=O)N[C@@H]32)cc1" , what is its reported EC50?
Resp: 70

Req: For "Nc1cc(CCCCCl)ccc1OCCCCNC(=O)c1ccc(CNC(=O)CCOCCOCCOCCOCCOCCOCCOCCOCCOCCOCCOCCOCCNC(=O)CCCC[C@H]2SC[C@H]3NC(=O)N[C@H]32)cc1" , what is its reported EC50?
Resp: 70

Req: For "O=C(CCCC[C@H]1SC[C@H]2NC(=O)N[C@H]21)NCCOCCOCCOCCOCCOCCOCCOCCOCCOCCOCCOCCOCCC(=O)NCc1ccc(C(=O)NCCCCOc2ccc(CCCCCl)cc2)cc1" , what is its reported EC50?
Resp: 110

Others:
Req: For "COc1cc(CCCCI)ccc1OCCCCNC(=O)c1ccc(CNC(=O)CCOCCOCCOCCOCCOCCOCCOCCOCCOCCOCCOCCOCCNC(=O)CCCC[C@@H]2SC[C@@H]3NC(=O)N[C@@H]32)cc1" , what is its reported EC50?
Resp: 30

Req: For "COc1cc(CCCCCCl)ccc1CCOCCNC(=O)c1ccc(CNC(=O)CCOCCOCCOCCOCCOCCOCCOCCOCCOCCOCCOCCOCCNC(=O)CCCC[C@@H]2SC[C@@H]3NC(=O)N[C@@H]32)cc1" , what is its reported EC50?
Resp: 4000

Req: For "O=C(CCCC[C@H]1SC[C@H]2NC(=O)N[C@H]21)NCCOCCOCCOCCOCCOCCOCCOCCOCCOCCOCCOCCOCCC(=O)NCc1ccc(C(=O)NCCCCOc2ccc(CCCCCl)cc2F)cc1" , what is its reported EC50?
Resp: 45

Req: For "O=C(CCCC[C@@H]1SC[C@@H]2NC(=O)N[C@@H]21)NCCOCCOCCOCCOCCOCCOCCOCCOCCOCCOCCOCCOCCC(=O)NCc1ccc(C(=O)NCCOCCOCCCCCCCl)cc1" , what is its reported EC50?
Resp: 150

Req: For COc1cc(CCCCl)ccc1C(=O)NCCCNC(=O)c1ccc(CNC(=O)CCOCCOCCOCCOCCOCCOCCOCCOCCOCCOCCOCCOCCNC(=O)CCCC[C@@H]2SC[C@@H]3NC(=O)N[C@@H]32)cc1 [drawing 134] , what is its reported EC50?
Resp: 280

Req: For COc1cc(CCCCl)ccc1C(=O)NCCCNC(=O)c1ccc(CNC(=O)CCOCCOCCOCCOCCOCCOCCOCCOCCOCCOCCOCCOCCNC(=O)CCCC[C@@H]2SC[C@@H]3NC(=O)N[C@@H]32)cc1 [drawing 133] , what is its reported EC50?
Resp: 200
